# STUDY_SYSTEM: KRAS G12C protein (Homo sapiens, UniProt P01116, G12C)
# Sequence (P01116 1-188 isoform P01116-2 G12C): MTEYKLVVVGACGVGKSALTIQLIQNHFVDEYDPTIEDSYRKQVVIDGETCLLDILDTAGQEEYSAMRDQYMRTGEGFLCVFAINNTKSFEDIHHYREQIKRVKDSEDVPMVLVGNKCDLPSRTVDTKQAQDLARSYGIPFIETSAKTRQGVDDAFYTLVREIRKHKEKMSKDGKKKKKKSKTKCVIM
# EXPERIMENT_SUMMARY: Nucleotide exchange assay (Method III, KRAS G12C/Raf-RBD TR-FRET)
# DETAILS: SOS1-mediated exchange of GDP for GTP, 18 hr compound incubation
EXPERIMENTAL_ENDPOINT: IC50

IN: Return IC50 measured with KRAS G12C protein (Homo sapiens, UniProt P01116, G12C) given this compound: C=C(F)C(=O)N1CCN(c2nc(Oc3cccc4c3CCN(C)C4)nc3c2COC(c2cccc4cccc(Cl)c24)C3)C[C@@H]1CC#N (single isomer, unassigned) [250 (Isomer A)]
OUT: 0.3 to 3 µM

IN: Under KRAS G12C protein (Homo sapiens, UniProt P01116, G12C): IC50 value of C=C(F)C(=O)N1CCN(c2nc(Oc3cccc4c3CN(C)CC4)nc3c2COC(c2cccc4cccc(Cl)c24)C3)C[C@@H]1CC#N (single isomer, unassigned) [249 (Isomer A)] ?
OUT: 0.3 to 3 µM

IN: Give the reported IC50 for C=C(F)C(=O)N1CCN(c2nc(OC[C@@H]3CC(F)(F)CN3C)nc3c2COC(c2cccc4cccc(Cl)c24)C3)C[C@@H]1CC#N (single isomer, unassigned) [228 (Isomer B)] (system: KRAS G12C protein (Homo sapiens, UniProt P01116, G12C)).
OUT: ≥ 3 µM

IN: So what IC50 did C=C(F)C(=O)N1CCN(c2nc(OC[C@@H]3CCCN3C)nc3c2COC(c2cccc4sc(N)nc24)C3)C[C@@H]1CC#N (single isomer, unassigned) [260 (Isomer B)] get with KRAS G12C protein (Homo sapiens, UniProt P01116, G12C)?
OUT: ≤ 0.3 µM

IN: Any idea what IC50 came out for C=C(F)C(=O)N1CCN(c2nc(Oc3cccc4c3CN(C)CC4)nc3c2COC(c2cccc4cccc(Cl)c24)C3)C[C@@H]1CC#N (single isomer, unassigned) [249 (Isomer B)] on KRAS G12C protein (Homo sapiens, UniProt P01116, G12C)?
OUT: ≥ 3 µM

IN: Can you look up IC50 on KRAS G12C protein (Homo sapiens, UniProt P01116, G12C) for C=C(C)C(=O)N1CCN(c2nc(OC[C@@H]3CCCN3C)nc3c2COC(c2cccc4cccc(Cl)c24)C3)C[C@@H]1CC#N (single isomer, unassigned) [240 (Isomer A)] ?
OUT: ≥ 3 µM

IN: Hi! What's the reported IC50 for C=C(F)C(=O)N1CCN(c2nc(N3CC(N(CC)CC)C3)nc3c2COC(c2cccc4cccc(Cl)c24)C3)C[C@@H]1CC#N (single isomer, unassigned) [229 (Isomer B)] on KRAS G12C protein (Homo sapiens, UniProt P01116, G12C)?
OUT: ≥ 3 µM

IN: Quick check: IC50 on KRAS G12C protein (Homo sapiens, UniProt P01116, G12C), item CN(C)C/C=C/C(=O)N1CCN(c2nc(OC[C@@H]3CCCN3C)nc3c2COC(c2cccc4cccc(Cl)c24)C3)C[C@@H]1CC#N (single isomer, unassigned) [242 (Isomer B)] ?
OUT: ≤ 0.3 µM

IN: Please state recorded IC50 (tested on KRAS G12C protein (Homo sapiens, UniProt P01116, G12C)) of C=CC(=O)N1CCN(c2nc(OC[C@@H]3CCCN3C)nc3c2CC=C(c2cccc4cccc(Cl)c24)O3)C[C@@H]1CC#N
OUT: ≤ 0.3 µM

IN: For KRAS G12C protein (Homo sapiens, UniProt P01116, G12C), provide IC50 of C=C(F)C(=O)N1CCN(c2nc(OC[C@@H]3CCCN3C)nc3c2COC(c2cccc4cccc(Cl)c24)C3(C)C)C[C@@H]1CC#N (single isomer, unassigned) [258 (Isomer B)] please.
OUT: ≤ 0.3 µM

Values were extracted from patent US20230023009A1.
